test system: T1, polypeptide GC3pep (human)
T1 construct: also called membrane proximal polypeptide GC3pep
T1 peptide: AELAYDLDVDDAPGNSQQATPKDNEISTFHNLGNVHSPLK
assay method text: ELISA, GC3pep coated, antibody 0.001 nM
parameter measured: OD450 nm (OD450 nm)
Reply numerically in OD450 nm, unit not repeated.

# return recorded OD450 nm for entry F1.118.4 (antibody, human IgG1, kappa, V domains shown, human-murine chimeric antibody) VH: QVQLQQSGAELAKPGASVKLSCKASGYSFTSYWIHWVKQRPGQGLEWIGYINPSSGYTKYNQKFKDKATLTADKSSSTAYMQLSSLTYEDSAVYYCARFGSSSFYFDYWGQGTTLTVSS VL: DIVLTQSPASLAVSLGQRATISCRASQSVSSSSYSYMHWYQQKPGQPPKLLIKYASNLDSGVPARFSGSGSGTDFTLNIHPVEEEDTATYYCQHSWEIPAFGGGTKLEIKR
0.04

Check the records and state OD450 nm for F1.41.17 (antibody, human IgG1, kappa, V domains shown, human-murine chimeric antibody) VH: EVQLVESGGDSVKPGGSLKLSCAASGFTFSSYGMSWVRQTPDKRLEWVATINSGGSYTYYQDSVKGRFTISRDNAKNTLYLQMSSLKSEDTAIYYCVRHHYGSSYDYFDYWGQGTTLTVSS VL: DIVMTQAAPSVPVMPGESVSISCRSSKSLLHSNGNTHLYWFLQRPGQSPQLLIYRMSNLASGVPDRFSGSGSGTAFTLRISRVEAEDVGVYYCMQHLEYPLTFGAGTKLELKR
0.05

For the binder F3.81.19 (antibody, human IgG1, kappa, V domains shown, human-murine chimeric antibody) VH: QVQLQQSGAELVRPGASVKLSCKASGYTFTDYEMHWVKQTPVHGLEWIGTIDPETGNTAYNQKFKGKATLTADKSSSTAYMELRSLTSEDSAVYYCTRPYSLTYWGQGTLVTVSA VL: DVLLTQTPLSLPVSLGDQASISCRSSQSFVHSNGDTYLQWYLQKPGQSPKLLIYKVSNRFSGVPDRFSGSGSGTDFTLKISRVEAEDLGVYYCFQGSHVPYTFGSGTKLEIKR , give its reported OD450 nm.
0.05

Please look at this binder and report its OD450 nm: F4.18.4 (antibody, human IgG1, kappa, V domains shown, human-murine chimeric antibody) VH: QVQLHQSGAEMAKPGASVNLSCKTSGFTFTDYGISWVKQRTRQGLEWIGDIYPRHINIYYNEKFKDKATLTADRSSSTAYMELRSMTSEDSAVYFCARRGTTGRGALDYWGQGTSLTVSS VL: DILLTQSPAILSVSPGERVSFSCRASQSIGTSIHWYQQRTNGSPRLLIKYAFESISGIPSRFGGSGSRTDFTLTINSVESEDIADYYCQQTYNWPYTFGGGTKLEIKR
0.04

Hello, please tell me recorded OD450 nm for this one: F1.136.7 (antibody, human IgG1, kappa, V domains shown, human-murine chimeric antibody) VH: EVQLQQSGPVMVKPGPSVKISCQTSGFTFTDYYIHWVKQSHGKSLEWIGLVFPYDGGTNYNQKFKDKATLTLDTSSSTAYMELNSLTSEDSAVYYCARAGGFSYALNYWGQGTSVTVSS VL: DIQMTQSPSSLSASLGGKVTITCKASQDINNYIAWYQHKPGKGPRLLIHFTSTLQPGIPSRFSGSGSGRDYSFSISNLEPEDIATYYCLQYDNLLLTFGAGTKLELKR
0.04

Every entry's value here was drawn from patent US20260116991A1.
